- PROTOCOL DETAILS: Lung tissue distribution after a single oral dose to rats
- Type: in vivo
- ASSAY CONDITIONS: Sprague-Dawley, rat, lung, p.o., 10 mg/kg, 2 h, read-out: concentration in the lungs
METRIC: concentration at 2 h (ng/g)
State just the number; it will be interpreted in ng/g.

[Q] Name the recorded concentration at 2 h of the item "Cc1ccc(F)c2[nH]c3c(c12)CN(C(=O)c1cc(C(F)(F)F)[nH]n1)[C@H](C)C3" in your answer.
[A] 4500

----------
Let's look at some compounds and their measured log10 EC50.
- ASSAYED TARGET: F508del-CFTR (Homo sapiens, UniProt P13569, DEL508-508)
- Sequence (P13569 with tags, fused parts or gaps DEL508-508): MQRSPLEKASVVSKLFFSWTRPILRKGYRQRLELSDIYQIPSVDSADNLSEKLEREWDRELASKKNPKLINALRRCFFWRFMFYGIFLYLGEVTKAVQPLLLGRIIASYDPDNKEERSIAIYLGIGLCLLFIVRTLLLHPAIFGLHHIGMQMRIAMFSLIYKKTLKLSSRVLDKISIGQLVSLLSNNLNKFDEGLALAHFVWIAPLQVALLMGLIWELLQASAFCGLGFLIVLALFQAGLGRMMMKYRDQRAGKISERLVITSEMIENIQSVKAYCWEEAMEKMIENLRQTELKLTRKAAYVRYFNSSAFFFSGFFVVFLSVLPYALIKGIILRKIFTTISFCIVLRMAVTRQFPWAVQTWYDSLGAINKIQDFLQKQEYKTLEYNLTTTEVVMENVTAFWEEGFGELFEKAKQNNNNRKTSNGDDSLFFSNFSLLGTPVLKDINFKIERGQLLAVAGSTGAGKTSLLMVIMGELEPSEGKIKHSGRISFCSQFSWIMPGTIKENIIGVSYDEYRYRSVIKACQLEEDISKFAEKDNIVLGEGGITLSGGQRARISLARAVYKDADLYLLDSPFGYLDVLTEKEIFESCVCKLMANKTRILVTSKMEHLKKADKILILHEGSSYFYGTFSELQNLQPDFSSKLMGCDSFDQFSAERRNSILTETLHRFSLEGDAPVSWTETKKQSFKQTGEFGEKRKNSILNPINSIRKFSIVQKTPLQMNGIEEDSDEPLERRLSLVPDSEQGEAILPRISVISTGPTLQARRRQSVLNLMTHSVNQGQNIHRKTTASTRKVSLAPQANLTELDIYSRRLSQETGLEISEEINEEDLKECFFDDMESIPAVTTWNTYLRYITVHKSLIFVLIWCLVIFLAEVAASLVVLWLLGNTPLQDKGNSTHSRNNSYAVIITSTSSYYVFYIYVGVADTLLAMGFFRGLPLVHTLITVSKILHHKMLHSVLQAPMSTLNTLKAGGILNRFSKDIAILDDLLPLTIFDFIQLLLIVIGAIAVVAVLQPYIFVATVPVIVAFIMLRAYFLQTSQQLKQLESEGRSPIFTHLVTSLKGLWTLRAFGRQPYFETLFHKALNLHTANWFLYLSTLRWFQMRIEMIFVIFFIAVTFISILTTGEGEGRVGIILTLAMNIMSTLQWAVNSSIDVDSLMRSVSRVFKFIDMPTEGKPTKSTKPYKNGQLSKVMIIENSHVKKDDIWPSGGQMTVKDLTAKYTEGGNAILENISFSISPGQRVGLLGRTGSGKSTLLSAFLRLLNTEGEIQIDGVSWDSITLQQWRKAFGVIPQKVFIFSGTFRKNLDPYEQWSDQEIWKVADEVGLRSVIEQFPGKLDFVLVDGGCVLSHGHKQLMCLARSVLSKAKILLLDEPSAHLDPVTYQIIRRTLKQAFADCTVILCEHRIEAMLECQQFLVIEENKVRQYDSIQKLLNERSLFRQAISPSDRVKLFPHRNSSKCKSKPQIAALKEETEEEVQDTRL
- PROTOCOL DETAILS: HS-YFP-based assay for CFTR activity on F508del-CFTR FRT cells rescued at 32 °C for 24 h
- Format: cell-based
- Parameters: expressed in transfected cells
- ASSAY CONDITIONS: F508del-CFTR FRT cells rescued at 32 °C for 24 h, plus forskolin; mean ± SD (n = 3–6); n.a.: not active (up to 20 μM)
Short version: log10 scale, EC50, µM.

COMPOUND: COc1ccc2[nH]c3c(c2c1)CN(C(=O)c1cc(C(F)(F)F)n(C)n1)CC3
METRIC: log10 EC50
NUMERIC VALUE: 0.85

[Q] Fill in log10 EC50 for record "N#Cc1ccc2[nH]c3c(c2c1)CN(C(=O)c1cc(C(F)(F)F)[nH]n1)CC3"
[A] 0.28

[Q] # return recorded log10 EC50 for input Cc1ccc(F)c2[nH]c3c(c12)CN(C(=O)c1cc(C(F)(F)F)[nH]n1)C(C)C3 (racemic)
[A] -1.66

[Q] Annotate the compound "O=C(c1cnn(-c2ccccc2)c1)N1CCc2[nH]c3ccccc3c2C1" with its measured log10 EC50.
[A] 0.61

[Q] Provide log10 EC50 value for the following compound: Cc1ccc(F)c2[nH]c3c(c12)C(C)N(C(=O)c1cc(C(F)(F)F)[nH]n1)CC3 (single isomer, unassigned) [Compound 41]
[A] -1.10

[Q] Identify log10 EC50 associated with the compound "Cc1cccc2[nH]c3c(c12)CN(C(=O)c1cc(C(F)(F)F)[nH]n1)CC3"
[A] -0.32

[Q] Give log10 EC50 for "O=C(c1cc(C(F)(F)F)[nH]n1)N1CCc2[nH]c3c(F)cc(C(F)(F)F)cc3c2C1"
[A] -0.24

[Q] Give the reported log10 EC50 for this compound. "Cc1cc(F)c2[nH]c3c(c2c1)CN(C(=O)c1cc(C(F)(F)F)[nH]n1)CC3"
[A] -0.64

----------
- ASSAYED TARGET: F508del-CFTR (Homo sapiens, UniProt P13569, DEL508-508)
- PROTOCOL DETAILS: HS-YFP-based assay for CFTR activity on F508del-CFTR FRT cells rescued at 32 °C for 24 h
- Assay type: cell-based
- Design: expressed in transfected cells
- ASSAY CONDITIONS: normalized for the activity of analogue 3; mean ± SD (n = 3–6); n.a.: not active (up to 20 μM)
METRIC: Emax (FRT F508del-CFTR)
Note: the reply should be a number with no unit written.

Here are 4 compounds together with their reported answers.
MOLECULAR STRING: Cc1ccc(F)c2[nH]c3c(c12)CN(C(=O)c1cc(C(F)(F)F)[nH]n1)C(C)(C)C3
ASSAYED TARGET: F508del-CFTR (Homo sapiens, UniProt P13569, DEL508-508)
Emax (FRT F508del-CFTR): 0.79
//
MOLECULAR STRING: Cc1ccc(F)c2[nH]c3c(c12)CN(C(=O)c1cc(C(F)(F)F)[nH]n1)[C@@H](C)C3
ASSAYED TARGET: F508del-CFTR (Homo sapiens, UniProt P13569, DEL508-508)
Emax (FRT F508del-CFTR): 1.31
//
MOLECULAR STRING: COc1ccc2[nH]c3c(c2c1)CN(C(=O)c1cc[nH]n1)CC3
ASSAYED TARGET: F508del-CFTR (Homo sapiens, UniProt P13569, DEL508-508)
Emax (FRT F508del-CFTR): 0.17
//
MOLECULAR STRING: COc1ccc2[nH]c3c(c2c1)CN(C(=O)c1cc(C(C)C)[nH]n1)CC3
ASSAYED TARGET: F508del-CFTR (Homo sapiens, UniProt P13569, DEL508-508)
Emax (FRT F508del-CFTR): 0.95

[Q] Determine its reported Emax (FRT F508del-CFTR): "COc1ccc2[nH]c3c(c2c1)CN(C(=O)c1cc(C)[nH]n1)CC3"
[A] 0.59

[Q] Respond only with Emax (FRT F508del-CFTR) recorded for "O=C(c1cc(C(F)(F)F)[nH]n1)N1CCc2[nH]c3ccc(OC(F)(F)F)cc3c2C1"
[A] 0.89

[Q] Look up and state reported Emax (FRT F508del-CFTR) for "COc1ccc2[nH]c3c(c2c1)CN(C(=O)c1cc2ccc(N(C)C)cc2[nH]1)CC3"
[A] 0.91

[Q] Tell me Emax (FRT F508del-CFTR) reported for "COc1ccc2[nH]c3c(c2c1)CN(C(=O)c1cc(C(F)(F)F)n(C)n1)CC3"
[A] 1.20

[Q] Dear colleague, please send me the reported Emax (FRT F508del-CFTR) for "O=C(c1cc(C(F)(F)F)[nH]n1)N1CCc2[nH]c3c(F)cccc3c2C1" when you can.
[A] 0.96

[Q] Please list Emax (FRT F508del-CFTR) recorded for the compound "COc1ccc2[nH]c3c(c2c1)CN(C(=O)c1cc(-c2ccccc2)[nH]n1)CC3"
[A] 0.84

[Q] Identify Emax (FRT F508del-CFTR) associated with the compound "COc1ccc2c(c1)c1c(n2C)CCN(C(=O)c2cc(C(F)(F)F)[nH]n2)C1"
[A] 0.85
